Below, each of the compounds is paired with its reported IC50 value.
Test system: ES1;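 further: growth inhibition of ES1 cells, read out with a cell viability assay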
Assay: cells
Type: functional, cell-based, Homo sapiens
Conditions: Homo sapiens, ES1
Description: SANGER: Inhibition of human ES1 cell growth in a cell viability assay.

COc1cc(N2CCC(N3CCN(C)CC3)CC2)ccc1Nc1ncc(Cl)c(Nc2ccccc2S(=O)(=O)C(C)C)n1 = > 2000 nM

IC50 reported for this compound `COc1ccc(N(C(=O)Oc2c(C)cccc2C)c2ccnc(Nc3ccc(N4CCN(C)CC4)cc3)n2)c(OC)c1` : > 5120 nM

// `C/C(=C\c1csc(C)n1)[C@@H]1C[C@@H]2O[C@]2(C)CCC[C@H](C)[C@H](O)[C@@H](C)C(=O)C(C)(C)[C@@H](O)CC(=O)O1` : IC50 value = 0.221 nM

`CN(C)CCOc1ccc(-c2nc(-c3ccncc3)c(-c3ccc4c(c3)CC/C4=N\O)[nH]2)cc1` has a reported IC50 of > 5000 nM

# compound C=CC(=O)N1CCCC(Nc2nc(Nc3ccc(N(C)C(=O)CC)cc3)nc3[nH]cnc23)C1 (configuration not stated) ; its IC50 = > 10200 nM

Memo: `CN(NC(=O)CC(=O)NN(C)C(=S)c1ccccc1)C(=S)c1ccccc1` , reported IC50: 0.749 nM

Entry `CS(=O)(=O)N1CCN(Cc2cc3nc(-c4cccc5[nH]ncc45)nc(N4CCOCC4)c3s2)CC1` ; IC50 = 2210 nM

====

// reported pIC50 for each item listed
System: HCC 2998;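 further: growth inhibition of human HCC2998 cells, measured with a cell viability read-out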
Assay: cells
Type: functional, cell-based
Settings: Homo sapiens
Description: SANGER: Inhibition of human HCC2998 cell growth in a cell viability assay.
Where a SMILES comes first, the peptide text is derived from it. The star is where a group is joined. Cbz = O=C(OCc1ccccc1)*
// pIC50 here means minus log10 of the molar concentration (mol/L)

I looked up CC(C)C[C@@H](C=O)NC(=O)[C@H](CC(C)C)NC(=O)[C@H](CC(C)C)NC(=O)OCc1ccccc1 [MG-132] (Cbz-Leu-Leu-Leu-aldehyde) and its pIC50 for HCC 2998 was 6.03

Item `CC1(C)CCC(c2ccc(Cl)cc2)=C(CN2CCN(c3ccc(C(=O)NS(=O)(=O)c4ccc(N[C@H](CCN5CCOCC5)CSc5ccccc5)c(S(=O)(=O)C(F)(F)F)c4)cc3)CC2)C1` was tested on HCC 2998; the reported pIC50 is 5.97

====

System: K5
Assay: cells
Format: functional, cell-based, Homo sapiens
Details: k5
Description: SANGER: Inhibition of human K5 cell growth in a cell viability assay.
Where a SMILES comes first, the peptide text is derived from it. The star is where a group is joined. Cbz = O=C(OCc1ccccc1)*
measured_parameter: IC50

Notebook: CC(C)C[C@@H](C=O)NC(=O)[C@H](CC(C)C)NC(=O)[C@H](CC(C)C)NC(=O)OCc1ccccc1 [MG-132] (Cbz-Leu-Leu-Leu-aldehyde) , IC50 read as > 1000 nM

====

Test system: J-RT3-T3-5;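 further: cell viability assay measuring growth inhibition of human J-RT3-T3-5 cells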
Experiment: cells
Type: functional, cell-based, Homo sapiens
Conditions: Homo sapiens, J-RT3-T3-5
Description: SANGER: Inhibition of human J-RT3-T3-5 cell growth in a cell viability assay.
pIC50: −log10 of the molar value.
measured_parameter: pIC50

Recorded pIC50, per entry:
Cc1cc(N2CCOCC2)cc2[nH]c(-c3c(NC[C@@H](O)c4cccc(Cl)c4)cc[nH]c3=O)nc12 = < 5.29
NC(=O)c1ccc(N(C(N)=O)c2c(F)cccc2F)nc1-c1ccc(F)cc1F [VX-702] = < 5.70
NC(=O)Nc1cc(-c2cccc(F)c2)sc1C(=O)N[C@H]1CCCNC1 [AZD-7762] = 6.57
C[C@@H](Oc1cc(-c2cnn(C3CCNCC3)c2)cnc1N)c1c(Cl)ccc(F)c1Cl [CRIZOTINIB] = < 5.70
CC(C)C[C@H](NC(=O)[C@H](Cc1ccccc1)NC(=O)c1cnccn1)B(O)O [BORTEZOMIB] = < 7.70
Nc1ccccc1NC(=O)c1ccc(CNC(=O)OCc2cccnc2)cc1 [ENTINOSTAT] = 6.47

Form: item `COc1ccc(N(C(=O)Oc2c(C)cccc2C)c2ccnc(Nc3ccc(N4CCN(C)CC4)cc3)n2)c(OC)c1` ; test system J-RT3-T3-5; pIC50: < 5.29

Item `NC(=O)c1cccc(-c2cc(Nc3ccc(OC(F)(F)F)cc3)ncn2)c1` was tested on J-RT3-T3-5; the reported pIC50 is < 5.89
